Listed below: melting point values for each entry.

Answered cases to consult:
smilesNotation: O=C(c1ccc2nonc2c1)[SH]1CCNCC1
assayReadout: melting point
measuredValue: 144 to 146 °C

smilesNotation: O=C(c1ccc2nonc2c1)N1CCC(O)CC1
assayReadout: melting point
measuredValue: 132 to 136 °C

Consider now this further molecule.
Look up melting point for this molecule: O=C(c1ccc2nonc2c1)N1CCCC1
97.8 to 99.3 °C

====

assayReadout: melting point

Item N#CC1CCN(C(=O)c2ccc3nonc3c2)CC1 has what recorded melting point?
104 to 107 °C

Would you kindly repeat that for O=C(c1ccc2nonc2c1)N1CCCCCC1 ?
86 to 87 °C

What do you get for O=C(c1ccc2nonc2c1)N1CCCCC1 ?
88.5 to 90.5 °C

Repeat with O=C(c1ccc2nonc2c1)N1CC=CC1
117 to 118 °C

Same read-out for CC1CCN(C(=O)c2ccc3nonc3c2)CC1 ?
86 to 87 °C

Hello, the source for this data is patent US6730677B2, in case you need it.
